Where do these numbers come from? They come from patent US20240000791A1.

assay: 4-week GLP toxicity study in rat; assay type: in vivo; conditions: male, rat, in vivo, po, 50 mg/kg, 50 mg/kg BID, Day 1, males
MEASURED_QUANTITY: AUC(0-t) (ng·h/mL)
Give bare numbers, in ng·h/mL.

INPUT: Report AUC(0-t) for COCc1ccc(NC(=O)c2c(C#CCN3CCOCC3)n(C3(C)CC3)c3ncnc(N)c23)cc1 [HM06-01/TAS0953-01] please.
OUTPUT: 50300

* * *

tested on: CCDC6-RET fusion cell line; assay: Growth inhibition, CCDC6-RET fusion cell line (isogenic pair); details: read-out: IC50 growth inhibition
MEASURED_QUANTITY: pIC50
Numbers only, as −log10 of the molar value.

INPUT: Form: Entry = COCc1ccc(NC(=O)c2c(C#CCN3CCOCC3)n(C3(C)CC3)c3ncnc(N)c23)cc1 | System = CCDC6-RET fusion cell line | pIC50 = ____
OUTPUT: 7.00

* * *

assay: Rat PK after oral and IV administration; assay type: in vivo; details: male, Han Wistar, plasma, oral, 3 mg/kg, glucose 5%, read-out: CL/F
MEASURED_QUANTITY: CL/F
# number then unit; no other words

INPUT: Need CL/F, item COCc1ccc(NC(=O)c2c(C#CCN3CCOCC3)n(C3(C)CC3)c3ncnc(N)c23)cc1
OUTPUT: 36 mL/min/kg

* * *

assay: Rat PK after oral and IV administration; type: in vivo; conditions: male, Han Wistar, plasma, oral, 50 mg/kg, glucose 5%, read-out: VSS/F
MEASURED_QUANTITY: Vd/F (L/kg)
Answers are plain numbers, in L/kg.

INPUT: Given COCc1ccc(NC(=O)c2c(C#CCN3CCOCC3)n(C3(C)CC3)c3ncnc(N)c23)cc1 [HM06/TAS0953] , state its recorded Vd/F.
OUTPUT: 10.2

* * *

test: 4-week GLP toxicity study in dog; format: in vivo; details: female, beagle, dog, in vivo, po, 30 mg/kg, 30 mg/kg BID, Day 1, females
MEASURED_QUANTITY: AUC(0-t) (ng·h/mL)
Numbers only, in ng·h/mL.

INPUT: // query AUC(0-t) value for entry COCc1ccc(NC(=O)c2c(C#CCN3CCOCC3)n(C3(C)CC3)c3ncnc(N)c23)cc1
OUTPUT: 29200

* * *

test: 4-week GLP toxicity study in dog; type: in vivo; details: beagle, dog, in vivo, oral; post first daily dose
MEASURED_QUANTITY: Tmax

INPUT: Any idea what Tmax was measured for COCc1ccc(NC(=O)c2c(C#CCN3CCOCC3)n(C3(C)CC3)c3ncnc(N)c23)cc1 ?
OUTPUT: 1 to 8 h

* * *

test: Brain migration property: plasma and brain concentration after single oral dose; format: in vivo, mouse; settings: BALB/cAJcl-nu/nu, mouse, brain / plasma, non-binding (unbound) concentrations, oral, mean of 2 mice
MEASURED_QUANTITY: Kp uu at 1 h
One number for each entry.

INPUT: Find the recorded Kp uu at 1 h belonging to COCc1ccc(NC(=O)c2c(C#CCN3CCOCC3)n(C3(C)CC3)c3ncnc(N)c23)cc1 and report it.
OUTPUT: 1.8

* * *

experiment: Rat PK after oral and IV administration; type: in vivo; settings: Han Wistar, plasma, oral, 30 mg/kg, glucose 5%
MEASURED_QUANTITY: Cmax
Write your answer as a measured quantity: the number, then the unit.

INPUT: Entry COCc1ccc(NC(=O)c2c(C#CCN3CCOCC3)n(C3(C)CC3)c3ncnc(N)c23)cc1 [HM06/TAS0953] has what Cmax?
OUTPUT: 6.25 µM

* * *

Record form. Attribute: IC50. Fill in for each entry.
target: FLT3 (Homo sapiens, UniProt P36888); test: Kinase inhibition; assay type: biochemical; details: read-out: IC50 kinase inhibition, FLT3
Sequence (P36888 27-993): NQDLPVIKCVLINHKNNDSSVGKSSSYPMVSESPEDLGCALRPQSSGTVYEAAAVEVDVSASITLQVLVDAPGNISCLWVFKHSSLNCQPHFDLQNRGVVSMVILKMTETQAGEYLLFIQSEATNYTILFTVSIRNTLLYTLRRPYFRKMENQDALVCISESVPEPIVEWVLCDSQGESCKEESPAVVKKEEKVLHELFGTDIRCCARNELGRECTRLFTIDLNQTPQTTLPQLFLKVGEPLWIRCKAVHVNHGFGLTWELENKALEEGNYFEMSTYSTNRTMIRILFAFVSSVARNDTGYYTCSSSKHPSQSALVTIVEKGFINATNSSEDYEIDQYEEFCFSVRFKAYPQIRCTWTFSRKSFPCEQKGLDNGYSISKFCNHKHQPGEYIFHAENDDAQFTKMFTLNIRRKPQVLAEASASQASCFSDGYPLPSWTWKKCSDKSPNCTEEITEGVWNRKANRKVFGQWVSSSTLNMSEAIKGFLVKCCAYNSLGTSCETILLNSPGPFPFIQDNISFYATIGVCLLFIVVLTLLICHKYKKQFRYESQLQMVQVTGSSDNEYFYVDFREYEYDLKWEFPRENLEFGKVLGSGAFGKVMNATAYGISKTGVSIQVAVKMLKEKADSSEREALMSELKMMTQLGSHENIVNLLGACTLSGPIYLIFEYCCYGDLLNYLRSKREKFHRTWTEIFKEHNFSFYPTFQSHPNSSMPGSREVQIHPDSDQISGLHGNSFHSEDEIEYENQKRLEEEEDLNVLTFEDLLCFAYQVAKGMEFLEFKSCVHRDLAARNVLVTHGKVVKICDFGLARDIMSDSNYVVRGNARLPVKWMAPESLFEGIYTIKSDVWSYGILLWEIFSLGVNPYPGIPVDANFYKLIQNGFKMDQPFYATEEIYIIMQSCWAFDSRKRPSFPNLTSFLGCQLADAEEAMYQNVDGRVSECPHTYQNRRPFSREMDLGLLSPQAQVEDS

MOLECULE	IC50
COc1ccc(CN2C3CC2CN(c2ccc(-c4cc(OCC(C)(C)O)cn5ncc(C#N)c45)cn2)C3)cn1 [LOXO-292, selpercatinib]	22 nM

# evaluate next
INPUT: I would be grateful if you could share the reported IC50 for CO[C@]1(C(=O)N[C@@H](C)c2ccc(-n3cc(F)cn3)nc2)CC[C@H](c2nc(C)cc(Nc3cc(C)[nH]n3)n2)CC1 [BLU-667, pralsetinib] .
OUTPUT: 11 nM

* * *

target: FLT1 (Homo sapiens); assay: Kinase inhibition; assay type: biochemical; conditions: read-out: IC50 kinase inhibition, FLT1
MEASURED_QUANTITY: IC50

INPUT: Which value of IC50 has been reported for CO[C@]1(C(=O)N[C@@H](C)c2ccc(-n3cc(F)cn3)nc2)CC[C@H](c2nc(C)cc(Nc3cc(C)[nH]n3)n2)CC1 [BLU-667, pralsetinib] in the records?
OUTPUT: 57 nM

* * *

assay: 4-week GLP toxicity study in dog; format: in vivo; conditions: female, beagle, dog, in vivo, po, 30 mg/kg, 30 mg/kg BID, Day 28, females
MEASURED_QUANTITY: AUC(0-t) (ng·h/mL)
Numbers only, in ng·h/mL.

INPUT: For the compound shown here, COCc1ccc(NC(=O)c2c(C#CCN3CCOCC3)n(C3(C)CC3)c3ncnc(N)c23)cc1 [HM06-01/TAS0953-01] , give the reported AUC(0-t).
OUTPUT: 29100

* * *

Experiment: 4-week GLP toxicity study in dog
Assay type: in vivo
Conditions: male, beagle, dog, in vivo, po, 30 mg/kg, 30 mg/kg BID, Day 28, males
Protocol: In the 4-week GLP toxicity study in dog, animals received 0, 15, 30, and 45 mg/kg BID HM06-01/TAS0953-01 by oral gavage for 4 consecutive weeks followed by 2-week recovery period. In the high dose of 45 mg/kg BID group, test item-related mortality was observed: 2 males were prematurely sacrificed on Day 17 and Day 18 for ethical reasons (severe clinical signs associated with a significant body weight loss). […]
MEASURED_QUANTITY: AUC(0-t)
Please answer using a numeric value trailed by its unit.

INPUT: For COCc1ccc(NC(=O)c2c(C#CCN3CCOCC3)n(C3(C)CC3)c3ncnc(N)c23)cc1 [HM06-01/TAS0953-01] , what is its reported AUC(0-t)?
OUTPUT: 22300 ng·h/mL

* * *

experiment: 4-week GLP toxicity study in rat; type: in vivo; conditions: rat, in vivo, po, Day 1, after the first daily dose
MEASURED_QUANTITY: Tmax (h)
One number for each entry, in h.

INPUT: Need Tmax, item COCc1ccc(NC(=O)c2c(C#CCN3CCOCC3)n(C3(C)CC3)c3ncnc(N)c23)cc1
OUTPUT: 7

* * *

molecular target: DDR1 (Homo sapiens, UniProt Q08345); assay: Kinase inhibition; assay type: biochemical
Sequence (Q08345 19-913): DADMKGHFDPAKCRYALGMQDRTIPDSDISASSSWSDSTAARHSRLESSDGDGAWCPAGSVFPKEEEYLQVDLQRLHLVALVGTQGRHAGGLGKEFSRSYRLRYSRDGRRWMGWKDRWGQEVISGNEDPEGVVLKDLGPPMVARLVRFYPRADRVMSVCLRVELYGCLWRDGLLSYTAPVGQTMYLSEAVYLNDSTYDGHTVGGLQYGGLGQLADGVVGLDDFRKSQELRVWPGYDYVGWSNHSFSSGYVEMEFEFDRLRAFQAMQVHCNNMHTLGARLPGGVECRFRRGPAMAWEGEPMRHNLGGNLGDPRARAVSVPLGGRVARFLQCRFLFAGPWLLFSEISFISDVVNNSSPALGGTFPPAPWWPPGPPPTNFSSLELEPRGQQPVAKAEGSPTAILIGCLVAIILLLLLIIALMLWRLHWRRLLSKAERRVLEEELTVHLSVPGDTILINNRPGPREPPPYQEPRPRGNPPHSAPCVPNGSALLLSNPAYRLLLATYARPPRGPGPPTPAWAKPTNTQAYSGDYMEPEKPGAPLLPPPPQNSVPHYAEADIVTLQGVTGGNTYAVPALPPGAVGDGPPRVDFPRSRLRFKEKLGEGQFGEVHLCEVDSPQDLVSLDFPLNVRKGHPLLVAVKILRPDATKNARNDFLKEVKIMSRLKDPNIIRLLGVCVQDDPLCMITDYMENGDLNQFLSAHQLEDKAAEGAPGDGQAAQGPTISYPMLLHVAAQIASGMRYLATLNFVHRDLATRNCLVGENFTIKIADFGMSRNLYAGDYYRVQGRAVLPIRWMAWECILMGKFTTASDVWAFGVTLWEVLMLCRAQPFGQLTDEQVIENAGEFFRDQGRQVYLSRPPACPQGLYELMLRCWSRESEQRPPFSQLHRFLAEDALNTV
MEASURED_QUANTITY: IC50 (nM)
Numbers only, in nM.

INPUT: If you can, please state the reported IC50 value of COCc1ccc(NC(=O)c2c(C#CCN3CCOCC3)n(C3(C)CC3)c3ncnc(N)c23)cc1 .
OUTPUT: 1190

* * *

target: FGFR1 (Homo sapiens); assay: Kinase inhibition; assay type: biochemical
Sequence (P11362 22-822): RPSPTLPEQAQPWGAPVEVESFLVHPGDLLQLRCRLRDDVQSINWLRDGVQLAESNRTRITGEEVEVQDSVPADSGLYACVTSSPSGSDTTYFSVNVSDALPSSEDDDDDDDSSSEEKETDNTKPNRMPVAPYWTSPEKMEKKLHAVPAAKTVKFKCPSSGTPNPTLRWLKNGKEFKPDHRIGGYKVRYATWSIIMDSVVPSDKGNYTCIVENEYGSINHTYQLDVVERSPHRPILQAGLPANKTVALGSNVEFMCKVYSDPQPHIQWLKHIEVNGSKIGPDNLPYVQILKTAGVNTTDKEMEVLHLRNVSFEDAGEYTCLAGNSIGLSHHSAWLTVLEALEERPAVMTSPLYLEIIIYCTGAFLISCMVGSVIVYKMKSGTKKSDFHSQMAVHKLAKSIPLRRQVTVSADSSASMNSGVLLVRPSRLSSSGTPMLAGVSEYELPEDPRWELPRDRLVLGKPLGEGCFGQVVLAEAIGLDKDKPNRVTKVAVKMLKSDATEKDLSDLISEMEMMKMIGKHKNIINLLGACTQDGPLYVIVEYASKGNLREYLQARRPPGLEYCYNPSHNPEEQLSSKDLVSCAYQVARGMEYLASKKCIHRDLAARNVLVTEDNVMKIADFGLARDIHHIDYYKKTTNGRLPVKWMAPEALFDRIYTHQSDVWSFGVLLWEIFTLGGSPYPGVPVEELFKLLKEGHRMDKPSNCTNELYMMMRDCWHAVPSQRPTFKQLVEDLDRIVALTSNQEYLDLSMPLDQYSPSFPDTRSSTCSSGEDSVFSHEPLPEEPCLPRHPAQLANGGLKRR
MEASURED_QUANTITY: pIC50
Answers are plain numbers, as −log10 of the molar value.

INPUT: May I ask what pIC50 has been recorded for COCc1ccc(NC(=O)c2c(C#CCN3CCOCC3)n(C3(C)CC3)c3ncnc(N)c23)cc1 ?
OUTPUT: 5.56

* * *

assay: Rat PK after oral and IV administration; type: in vivo; conditions: male, Han Wistar, plasma, oral, 50 mg/kg, glucose 5%
MEASURED_QUANTITY: half-life (h)
Answers are plain numbers, in h.

INPUT: Look at this molecule and give its reported half-life. COCc1ccc(NC(=O)c2c(C#CCN3CCOCC3)n(C3(C)CC3)c3ncnc(N)c23)cc1 [HM06/TAS0953]
OUTPUT: 3.7

* * *

assay: Rat PK after oral and IV administration; assay type: in vivo; settings: male, Han Wistar, plasma, oral, 10 mg/kg, glucose 5%, read-out: CL/F
MEASURED_QUANTITY: CL/F (mL/min/kg)
Numbers only, in mL/min/kg.

INPUT: Using the record for COCc1ccc(NC(=O)c2c(C#CCN3CCOCC3)n(C3(C)CC3)c3ncnc(N)c23)cc1 [HM06/TAS0953] , report its CL/F.
OUTPUT: 34

* * *

target: UniProtKB P35916; experiment: Kinase inhibition; assay type: biochemical
Sequence (P35916 25-1363): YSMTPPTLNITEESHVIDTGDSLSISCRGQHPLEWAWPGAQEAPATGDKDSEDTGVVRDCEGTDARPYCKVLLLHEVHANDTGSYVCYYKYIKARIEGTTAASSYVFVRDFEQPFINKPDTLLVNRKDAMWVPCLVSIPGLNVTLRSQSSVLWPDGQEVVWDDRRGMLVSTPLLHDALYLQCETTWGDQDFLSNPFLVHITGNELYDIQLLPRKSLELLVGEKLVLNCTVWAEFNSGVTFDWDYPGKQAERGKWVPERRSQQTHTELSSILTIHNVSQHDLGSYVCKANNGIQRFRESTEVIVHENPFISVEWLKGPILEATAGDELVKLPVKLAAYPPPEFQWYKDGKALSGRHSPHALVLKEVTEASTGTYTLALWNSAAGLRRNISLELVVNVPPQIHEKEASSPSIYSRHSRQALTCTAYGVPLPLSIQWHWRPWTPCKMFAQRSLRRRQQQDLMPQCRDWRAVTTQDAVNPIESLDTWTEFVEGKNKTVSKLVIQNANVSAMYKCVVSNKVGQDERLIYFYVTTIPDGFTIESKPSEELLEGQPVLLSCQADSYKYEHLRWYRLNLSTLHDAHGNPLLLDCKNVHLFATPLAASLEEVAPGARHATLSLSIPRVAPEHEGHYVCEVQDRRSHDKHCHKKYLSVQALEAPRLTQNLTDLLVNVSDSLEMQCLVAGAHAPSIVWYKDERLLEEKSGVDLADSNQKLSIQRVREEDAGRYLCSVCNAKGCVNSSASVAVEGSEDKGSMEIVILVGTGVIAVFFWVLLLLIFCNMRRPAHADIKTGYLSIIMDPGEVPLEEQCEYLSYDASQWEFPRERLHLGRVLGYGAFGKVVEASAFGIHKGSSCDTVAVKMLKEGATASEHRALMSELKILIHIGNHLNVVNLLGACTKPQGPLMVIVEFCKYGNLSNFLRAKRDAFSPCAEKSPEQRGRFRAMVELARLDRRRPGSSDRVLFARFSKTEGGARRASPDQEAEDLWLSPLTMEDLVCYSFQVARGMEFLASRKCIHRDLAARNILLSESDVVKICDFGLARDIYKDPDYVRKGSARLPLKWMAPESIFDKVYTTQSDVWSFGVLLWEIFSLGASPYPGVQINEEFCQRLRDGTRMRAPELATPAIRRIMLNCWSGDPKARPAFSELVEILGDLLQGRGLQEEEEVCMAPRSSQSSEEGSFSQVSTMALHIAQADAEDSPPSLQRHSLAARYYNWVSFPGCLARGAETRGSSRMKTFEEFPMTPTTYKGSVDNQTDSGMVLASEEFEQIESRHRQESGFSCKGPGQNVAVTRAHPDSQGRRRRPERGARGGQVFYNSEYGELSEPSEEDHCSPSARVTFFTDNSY
MEASURED_QUANTITY: pIC50
Answers are plain numbers, as −log10 of the molar value.

INPUT: GET /values?readout=pIC50&item= COCc1ccc(NC(=O)c2c(C#CCN3CCOCC3)n(C3(C)CC3)c3ncnc(N)c23)cc1
OUTPUT: 6.82

* * *

assay: Rat PK after oral and IV administration; type: in vivo; settings: male, Han Wistar, plasma, oral, 3 mg/kg, glucose 5%, read-out: VSS/F
MEASURED_QUANTITY: Vd/F (L/kg)
Numbers only, in L/kg.

INPUT: Can you share its Vd/F? I mean this compound: COCc1ccc(NC(=O)c2c(C#CCN3CCOCC3)n(C3(C)CC3)c3ncnc(N)c23)cc1
OUTPUT: 4.6
